Every entry's value here was drawn from ChEMBL document CHEMBL5131379.

Experiment: in vitro
Details: human, MRC9 cells
measuredParameter: IC50 at 72 h

# count of solved cases: 2
>  <smilesStructure>
O=C(NO)c1ccc(CN(C2CC2)S(=O)(=O)c2cc(F)c(F)c(F)c2F)cc1

>  <IC50 at 72 h>
> 20 µM

$$$$
>  <smilesStructure>
O=C(NO)c1ccc(CN(C2CC2)S(=O)(=O)c2cc(F)c(F)c(F)c2)cc1

>  <IC50 at 72 h>
> 25 µM

$$$$

Problem: IC50 at 72 h lookup needed for CC(C)N(Cc1ccc(C(=O)NO)cc1)S(=O)(=O)c1c(F)c(F)c(F)c(F)c1F , thanks.
Solution: > 10 µM

Problem: Entry CN(Cc1ccc(C(=O)NO)cc1)S(=O)(=O)c1c(F)c(F)c(F)c(F)c1F has what IC50 at 72 h?
Solution: > 30 µM

Problem: Name the reported IC50 at 72 h value associated with the compound O=C(NO)c1ccc(CN(C2CC2)S(=O)(=O)c2c(F)c(F)c(Cl)c(F)c2F)cc1
Solution: > 30 µM
